Recorded A1V1 activation, % of agonist value for the following molecules
# System: TRPA1V1
# assay-notes: Intracellular calcium (Fluo-4, FLIPR) activation of TRPA1V1 cells (co-expressing TRPA1 and TRPV1) by GRAS compounds;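 further: HEK293 cells co-expressing TRPA1 and TRPV1, fluorescence read at 488/514 nm after baseline subtraction, recorded every 2 s over 10 min, ionomycin 10 µM and buffer as controls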
# Type: cell-based, human
# measurement-conditions: Table 1(c); 1 mM; relative to AITC 30 μM
Structures can show the parent of a compound that is named as a salt.

{"molecule": "C=CCc1ccc(OC(C)=O)c(OC)c1 [Eugenyl acetate]", "A1V1 activation, % of agonist value (%)": 83.94}
{"molecule": "CCCC=CC=CC=O", "A1V1 activation, % of agonist value (%)": 82.7}
{"molecule": "C=C(C)C1CC=C(C)C(OC(C)=O)C1 (single isomer, unassigned; (-)) [(−)-Carvyl acetate]", "A1V1 activation, % of agonist value (%)": 37}
{"molecule": "C=C(C)[C@@H]1CCC2=CCC[C@@H](C)[C@]2(C)C1", "A1V1 activation, % of agonist value (%)": 66.32}
{"molecule": "COC(=O)c1ccccc1NC=O [Methyl o-formamidobenzoate]", "A1V1 activation, % of agonist value (%)": 75.64}
{"molecule": "CC(C=O)c1ccccc1 (stereo not drawn)", "A1V1 activation, % of agonist value (%)": 106.9}
{"molecule": "CNc1ccccc1C(=O)OC [Methyl N-methylanthranilate]", "A1V1 activation, % of agonist value (%)": 86.81}
{"molecule": "CC1=CCC(C(C)(C)OC=O)CC1 (stereo not drawn) [alpha-Terpinyl formate]", "A1V1 activation, % of agonist value (%)": 71}
{"molecule": "O=Cc1ccc(O)cc1 [4-Hydroxybenzaldehyde]", "A1V1 activation, % of agonist value (%)": 60.3}
